The reported measurements were obtained from patent US7576128B2.

experimental-target: androgen receptor (Homo sapiens)
Sequence (P10275 whole entry Q868H, form open): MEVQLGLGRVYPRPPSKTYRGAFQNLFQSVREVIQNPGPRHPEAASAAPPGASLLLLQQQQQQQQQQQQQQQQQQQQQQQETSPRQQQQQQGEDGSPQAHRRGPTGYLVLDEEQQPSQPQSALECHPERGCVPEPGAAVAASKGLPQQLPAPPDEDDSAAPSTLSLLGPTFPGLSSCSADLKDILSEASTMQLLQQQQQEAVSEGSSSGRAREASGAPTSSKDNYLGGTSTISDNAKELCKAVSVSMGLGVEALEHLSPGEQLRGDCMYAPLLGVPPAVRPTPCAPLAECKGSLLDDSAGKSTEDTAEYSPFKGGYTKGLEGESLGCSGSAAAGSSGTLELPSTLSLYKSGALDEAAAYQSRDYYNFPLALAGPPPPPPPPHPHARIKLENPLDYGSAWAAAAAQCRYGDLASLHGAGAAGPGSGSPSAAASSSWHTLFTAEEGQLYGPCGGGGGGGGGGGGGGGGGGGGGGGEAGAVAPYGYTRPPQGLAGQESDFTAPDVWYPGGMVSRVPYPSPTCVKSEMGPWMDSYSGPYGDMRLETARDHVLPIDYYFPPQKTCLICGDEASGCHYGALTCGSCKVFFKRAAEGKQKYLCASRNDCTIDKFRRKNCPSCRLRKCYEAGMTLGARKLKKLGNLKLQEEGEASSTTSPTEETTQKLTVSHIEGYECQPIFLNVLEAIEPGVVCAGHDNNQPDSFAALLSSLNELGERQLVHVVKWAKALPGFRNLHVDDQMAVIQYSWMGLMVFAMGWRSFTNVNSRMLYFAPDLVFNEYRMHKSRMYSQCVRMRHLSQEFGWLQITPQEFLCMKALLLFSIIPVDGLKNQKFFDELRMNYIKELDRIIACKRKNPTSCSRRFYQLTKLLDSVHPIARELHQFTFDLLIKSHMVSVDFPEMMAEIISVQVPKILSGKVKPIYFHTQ
assay: AR antagonist cell assay, MDA-MB453-MMTV clone 54-19 luciferase reporter
Format: cell-based
conditions-used: MDA-MB453-MMTV clone 54-19, 100 pM DHT, 17 hr; mean of multiple tests; read-out: AR Cell IC50
pIC50: −log10 of the molar value.
quantity-measured: pIC50

These recorded examples may help you get a feel for the data.
> print(dat)
                                   molecule  observed
1  C[C@H](O)CCOc1ccc(C#N)c(C(F)(F)F)c1 [Example 8]    < 6.00
2  CC(C)CCCC(O)COc1ccc(C#N)c(C(F)(F)F)c1 (stereo not drawn) [Example 4]    < 6.00

Give pIC50 for the following molecule: C[C@H](O)C[C@H](C)Oc1ccc(C#N)c(C(F)(F)F)c1 [Example 16]
< 6.00
